EXPERIMENTAL SYSTEM: human Kv7.2+3 (Homo sapiens, UniProt O43525+O43526)
Construct: expressed in transfected cells; host or cells: HEK293
PROTOCOL DESCRIPTION: FLIPR-based thallium influx characterization of Kv7.2+3 modulators
Type: cell-based
TEST CONDITIONS: maximal response relative to the reference (retigabine) response; HEK293 human Kv7.2+3, Tl+ influx FLIPR; read-out: Efficacy
MEASURED METRIC: Emax (%)
API: value field is a number in %; no unit string.

Below, each entry is followed by its recorded Emax result.
{"COMPOUND": "O=C(Nn1c(N2CCCC2)nc2c(F)cccc2c1=O)[C@@H]1C[C@@H]1c1ccc(Cl)cc1 (relative stereo)", "ENDPOINT RESULT": 101}
{"COMPOUND": "CC(CC(=O)Nn1c(N2CCCC2)nc2ccccc2c1=O)c1cccc(F)c1 (stereo not drawn)", "ENDPOINT RESULT": 98}

The record that follows has no Emax shown yet.
Can you look up the measured Emax of CCN(C)c1nc2cc(F)ccc2c(=O)n1NC(=O)[C@@H]1C[C@@H]1c1ccc(Cl)cc1 (relative stereo) for me?
114

###

EXPERIMENTAL SYSTEM: human Kv7.2+3 (Homo sapiens, UniProt O43525+O43526)
PROTOCOL DESCRIPTION: FLIPR-based thallium influx characterization of Kv7.2+3 modulators
TEST CONDITIONS: HEK293 cells over-expressing human Kv7.2+3; Tl+ influx, BTC-AM, FLIPR; 50% of channel activity compared to retigabine control responses
Consider the cut-off 800 nM. If the recorded EC50 is strictly smaller, the label is T; if not, the label is F.

// known answers, use as guide
{"COMPOUND": "CC(C)(C)c1ccc(SCC(=O)Nn2c(N3CCCC3)nc3ccccc3c2=O)cc1", "EXPERIMENTAL SYSTEM": "human Kv7.2+3 (Homo sapiens, UniProt O43525+O43526)", "ASSIGNED LABEL": "F"}
{"COMPOUND": "CC(CC(=O)Nn1c(N2CCCC2)nc2ccccc2c1=O)c1ccc(Cl)cc1 (centres unmarked)", "EXPERIMENTAL SYSTEM": "human Kv7.2+3 (Homo sapiens, UniProt O43525+O43526)", "ASSIGNED LABEL": "T"}
{"COMPOUND": "COCCN(C)c1nc2ccccc2c(=O)n1NC(=O)CCc1cccc(F)c1", "EXPERIMENTAL SYSTEM": "human Kv7.2+3 (Homo sapiens, UniProt O43525+O43526)", "ASSIGNED LABEL": "F"}
{"COMPOUND": "CC(C)N(C)c1nc2cc(F)cc(F)c2c(=O)n1NC(=O)CCc1cccc(F)c1", "EXPERIMENTAL SYSTEM": "human Kv7.2+3 (Homo sapiens, UniProt O43525+O43526)", "ASSIGNED LABEL": "T"}
{"COMPOUND": "CCN(C)c1nc2cc(F)cc(F)c2c(=O)n1NC(=O)[C@@H]1C[C@@H]1c1ccc(Cl)cc1 (relative stereo)", "EXPERIMENTAL SYSTEM": "human Kv7.2+3 (Homo sapiens, UniProt O43525+O43526)", "ASSIGNED LABEL": "T"}
{"COMPOUND": "O=C(Nn1c(N2CCCC2)nc2c(F)cccc2c1=O)[C@@H]1C[C@@H]1c1ccc(Cl)cc1 (relative stereo)", "EXPERIMENTAL SYSTEM": "human Kv7.2+3 (Homo sapiens, UniProt O43525+O43526)", "ASSIGNED LABEL": "T"}
{"COMPOUND": "O=C(CSc1ccccc1)Nn1c(N2CCCC2)nc2ccccc2c1=O", "EXPERIMENTAL SYSTEM": "human Kv7.2+3 (Homo sapiens, UniProt O43525+O43526)", "ASSIGNED LABEL": "F"}

Consider the compound O=C(Nn1c(N2CCCC2)nc2cc(F)cc(F)c2c1=O)[C@@H]1C[C@@H]1c1ccc(Cl)cc1 (relative stereo) . Is its EC50 strictly less than 800 nM?
F
